# log10(EC50) listing for each entry below
test system: adenosine A2a receptor (Homo sapiens)
Construct: expressed in transfected cells; host or cells: CHO (Chinese Hamster Ovary)
Sequence (P29274 whole entry): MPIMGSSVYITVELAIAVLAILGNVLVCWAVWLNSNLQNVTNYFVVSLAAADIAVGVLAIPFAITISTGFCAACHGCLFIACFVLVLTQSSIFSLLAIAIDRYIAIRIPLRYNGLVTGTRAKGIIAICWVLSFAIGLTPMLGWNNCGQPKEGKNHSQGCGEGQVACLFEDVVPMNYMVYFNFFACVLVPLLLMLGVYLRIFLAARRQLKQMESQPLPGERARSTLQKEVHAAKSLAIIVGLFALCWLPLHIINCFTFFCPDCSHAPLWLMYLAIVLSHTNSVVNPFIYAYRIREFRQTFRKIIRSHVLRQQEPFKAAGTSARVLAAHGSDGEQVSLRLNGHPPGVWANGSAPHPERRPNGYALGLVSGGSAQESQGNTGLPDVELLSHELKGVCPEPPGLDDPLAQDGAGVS
test description: Indirect determination of adenosine agonism by way of gene expression (luciferase, CHO cells), A2a
Assay type: cell-based
applied conditions: CHO cells stably transfected with A2a receptor cDNA; 50% of maximum luciferase stimulation
value kind: log10(EC50) (log10 of the value in nM)

>  <query smiles>
N#Cc1c(NCCO)nc(SCc2coc(-c3ccc(Cl)cc3)n2)c(C#N)c1-c1ccc(OCCO)cc1

>  <log10(EC50)>
3.16

$$$$
>  <query smiles>
N#Cc1c(N)nc(OCc2coc(-c3ccc(F)c(F)c3)n2)c(C#N)c1-c1ccc(OCCO)cc1

>  <log10(EC50)>
3.29

$$$$
>  <query smiles>
N#Cc1c(N)nc(SCc2coc(-c3ccc(F)cc3)n2)c(C#N)c1-c1ccc(OC[C@H](O)CO)cc1

>  <log10(EC50)>
1.86

$$$$
>  <query smiles>
N#Cc1c(N)nc(SCc2coc(-c3ccc(Cl)cc3)n2)c(C#N)c1-c1ccc(OC[C@@H](O)CO)cc1

>  <log10(EC50)>
2.14

$$$$
>  <query smiles>
N#Cc1c(N)nc(SCc2coc(-c3ccc(F)cc3)n2)c(C#N)c1-c1ccc(OC[C@@H](O)CO)cc1

>  <log10(EC50)>
1.81

$$$$
>  <query smiles>
N#Cc1c(N)nc(OCc2coc(-c3ccc(Cl)cc3)n2)c(C#N)c1-c1ccc(OCCO)cc1

>  <log10(EC50)>
2.70

$$$$
>  <query smiles>
N#Cc1c(N)nc(SCc2coc(-c3ccc(Cl)cc3)n2)c(C#N)c1-c1ccc(OC[C@H](O)CO)cc1

>  <log10(EC50)>
2.48

$$$$
>  <query smiles>
N#Cc1c(N)nc(SCc2ncoc2-c2ccc(Cl)cc2)c(C#N)c1-c1ccc(OC[C@@H](O)CO)cc1

>  <log10(EC50)>
2.72

$$$$
>  <query smiles>
N#Cc1c(N)nc(SCc2coc(-c3ccc(F)c(Cl)c3)n2)c(C#N)c1-c1ccc(OCCO)cc1

>  <log10(EC50)>
3.05

$$$$
>  <query smiles>
Cc1cc(-c2nc(CSc3nc(N)c(C#N)c(-c4ccc(OCCO)cc4)c3C#N)co2)ccc1F

>  <log10(EC50)>
2.67

$$$$
>  <query smiles>
N#Cc1c(SCc2coc(-c3ccc(Cl)cc3)n2)nc(N2CCC2)c(C#N)c1-c1ccc(OCCO)cc1

>  <log10(EC50)>
2.84

$$$$
>  <query smiles>
Cc1cc(-c2nc(CSc3nc(N)c(C#N)c(-c4ccc(OC[C@H](O)CO)cc4)c3C#N)co2)ccc1Cl

>  <log10(EC50)>
2.66

$$$$
>  <query smiles>
N#Cc1c(SCc2coc(-c3ccc(Cl)cc3)n2)nc(N2CC(O)C2)c(C#N)c1-c1ccc(OCCO)cc1

>  <log10(EC50)>
3.02

$$$$
>  <query smiles>
Cc1oc(-c2ccccc2F)nc1CSc1nc(N)c(C#N)c(-c2ccc(OC[C@@H](O)CO)cc2)c1C#N

>  <log10(EC50)>
2.64

$$$$
>  <query smiles>
COc1ccc(-c2nc(CSc3nc(N)c(C#N)c(-c4ccc(OC[C@H](O)CO)cc4)c3C#N)c(C)o2)cc1

>  <log10(EC50)>
2.76

$$$$
>  <query smiles>
N#Cc1c(N)nc(SCc2coc(-c3ccc(F)c(F)c3)n2)c(C#N)c1-c1ccc(OCCO)cc1

>  <log10(EC50)>
2.85

$$$$
